Hey, just so you know, these numbers are from the Immune Epitope Database (IEDB).

biological target: HLA-B*57:01; experiment: IEDB peptide-MHC binding, purified MHC/direct/fluorescence; filed as Kd, often an IC50 or EC50 that approximates it; bounds were set here for any values at or beyond the usual limits of such assays; details: source organism: Cowpox virus
For each entry below, report its Kd value.

Give its Kd value. Item: `VYSFDESSF`
≥ 20 µM

How about this sequence: `YHRPLTGYM`
≥ 20 µM

----------
molecular target: HLA-B*51:01; experiment: IEDB peptide-MHC binding, purified MHC/competitive/fluorescence; filed as Kd, often an IC50 or EC50 that approximates it; bounds were set here for any values at or beyond the usual limits of such assays; settings: source organism: Orthohantavirus dobravaense
ASSAY_METRIC: Kd

Quick one: Kd for `MRNTIMASK` ?
≥ 20 µM

----------
molecular target: HLA-B*46:01; test: IEDB peptide-MHC binding, purified MHC/competitive/fluorescence; filed as Kd, often an IC50 or EC50 that approximates it; bounds were set here for any values at or beyond the usual limits of such assays; conditions: source organism: Giardia lamblia ATCC 50803
pKd: −log10 of the molar value.
ASSAY_METRIC: pKd

pKd lookup needed for `TELPLAYER` , thanks.
≤ 4.70

----------
molecular target: HLA-A*68:01; assay: IEDB peptide-MHC binding, purified MHC/competitive/radioactivity; filed as Kd, often an IC50 or EC50 that approximates it; bounds were set here for any values at or beyond the usual limits of such assays; conditions: source organism: Vaccinia virus WR
For each entry below, report its pKd value.
A value of pKd is the negative decimal logarithm of a concentration given in moles per litre.

What does the record list as pKd for `IFVSLVKKNK` ?
7.25

What about this sequence? `MLFTSTNDK`
7.58

Another sequence: `KVFSFWLLCK`
7.37

Same thing, different sequence: `NVFKAMETFK`
8.88

Entry to check: `VIENGILKK`
5.74

Also `KSINKVYGR` ?
7.81

Queued: `DVDTSASEIK`
6.87

Next record, please: `STIANSNIIK`
7.79

Moving on to `VIRLLIWAY`
5.23

Item: `TAKVIKLVK`
5.31

Proceed to `LVKSYSLIR`
6.09

Try this sequence too: `IMDKEQLLK`
5.95

Now give it for `GLLDSIKMIY` too.
6.09

Continue with `YSRVNHAKY`
5.92

Please give the result for `PVLKAMHDK` too.
5.60

Same question for `LFHGGEPIK` please.
5.29

Lookup `RSKQKIGDLR`
5.89

What about this sequence? `KSIIIPFIAY`
4.75

Next sequence up: `SSTCSAVTDR`
7.06

What would you report for `NMVSDTIMKR` ?
7.04

----------
molecular target: HLA-A*01:01; test: IEDB peptide-MHC binding, purified MHC/direct/fluorescence; filed as Kd, often an IC50 or EC50 that approximates it; bounds were set here for any values at or beyond the usual limits of such assays; details: source organism: Brucella abortus
pKd: −log10 of the molar value.
ASSAY_METRIC: pKd

Look up pKd for this sequence: `AENGWGFYF`
≤ 4.70

----------
target: HLA-A*11:01; assay: IEDB peptide-MHC binding, purified MHC/competitive/fluorescence; bounds were set here for any values at or beyond the usual limits of such assays; conditions: source organism: Zaire ebolavirus
What pIC50 was measured for each of the following?
The value called pIC50 is obtained by taking minus log10 of the concentration in mol/L.

For the sequence `VSSGKNIKR` , what pIC50 is on record?
5.37

Quick one: `TSPQSLTTK`
5.75

// repeat for `SSGYYSTTI` and report
4.47

Try this sequence too: `FLILPQAKK`
5.78
